Starred links: 1 amine or outer side, 2 acyl side, 3 side chain; linkers in the order of their positions; H or OH if unused. Non-standard residues stand in square brackets, D forms with d. Residues, ends and D or L forms follow the SMILES beside them. *: point of attachment. CH2(1-naphthyl) = c1ccc2c(C*)cccc2c1; Hyp = O=C(O)[C@@H]1C[C@@H](O)CN1; Suc = O=C(CCC(=O)[*:2])[*:1]; Nva = CCC[C@H](N)C(=O)O; Ac3c = NC1(C(=O)O)CC1
// IC50 collected for NS3 (Hepatitis C virus, UniProt A3EZJ3)
measuredEndpoint: IC50 (µM)

molecule	measuredEndpoint	val
CC[C@H](C)[C@H](NC(=O)CCC(=O)O)C(=O)N[C@H](C(=O)N1C[C@H](OCc2cccc3ccccc23)C[C@H]1C(=O)NC1(C(=O)O)CC1)C(C)C (Suc-IV[Hyp](CH2(1-naphthyl))[Ac3c]-OH)	IC50	5.5
CCC[C@H](NC(=O)[C@@H]1C[C@@H](OCc2cccc3ccccc23)CN1C(=O)[C@@H](NC(=O)[C@@H](NC(=O)CCC(=O)O)[C@@H](C)CC)C(C)C)C(=O)O (Suc-IV[Hyp](CH2(1-naphthyl))[Nva]-OH)	IC50	22

Entry source: ChEMBL document CHEMBL1132772
